Tested on: OVCAR-8
Where a name gives a salt, the structure may show the parent alone.
The entries below come with measured log10 GI50 values attached.
observable: log10 GI50 (log10 of the value in nM)

# molecule, test_system, observed
data = [
    ("CN(CCCN)CCCNc1nc2ccccc2c2[nH]c3ccccc3c12 [Compound 10, hydrochloride]", "OVCAR-8", 1.60),
    ("Cl.OCCNCCNc1nc2ccccc2c2[nH]c3ccccc3c12 [Compound 9, hydrochloride]", "OVCAR-8", 2.91),
    ("NCCCN1CCN(CCCNc2nc3ccccc3c3[nH]c4ccccc4c23)CC1 [Compound 6, hydrochloride]", "OVCAR-8", 1.60),
    ("Cl.c1ccc2c(c1)nc(NCCCNCCCNc1nc3ccccc3c3[nH]c4ccccc4c13)c1c3ccccc3[nH]c21 [Compound 8a, hydrochloride]", "OVCAR-8", 1.60),
    ("Cl.OCCNc1nc2ccccc2c2[nH]c3ccccc3c12 [Compound 7d, hydrochloride]", "OVCAR-8", 2.56),
    ("Cl.Nc1nc2ccccc2c2[nH]c3ccccc3c12 [Compound 7e, hydrochloride]", "OVCAR-8", 2.99),
    ("c1ccc2c(c1)nc(NCCN1CCNCC1)c1c3ccccc3[nH]c21", "OVCAR-8", 1.60),
    ("Oc1ccc(CCNc2nc3ccccc3c3[nH]c4ccccc4c23)cc1 [Compound 7a, hydrochloride]", "OVCAR-8", 3.01),
]
